- Tested on: Echinochloa crus-galli (ECHCG)
- method notes: Experiment B1 glasshouse herbicide test, pre- and post-emergence, percentage damage
- Type: in vivo
- cond: POST Application (post-emergence, after 8 days cultivation), 1000 g/h, evaluated after 13 days
Would you kindly list percentage damage caused to the plant, five point scale, ECHCG for each of these compounds?

For orientation, consider the following solved cases.
compound: CCn1nnnc1NC(=O)c1cc2cccnc2c(-c2ccccc2)c1C(F)(F)F [Compound 1.002]
experimental value: 5 (5=80-100%)
//
compound: Cc1ccc2cc(C(=O)Nc3nnnn3C)c(C)c(-c3ccc(S(C)(=O)=O)cc3)c2n1 [Compound 1.038]
experimental value: 5 (5=80-100%)
//
compound: Cn1nnnc1NC(=O)c1cc2cc(F)cnc2c(-c2ccccc2)c1C(F)(F)F [Compound 1.007]
experimental value: 5 (5=80-100%)

Batch request: percentage damage caused to the plant, five point scale, ECHCG per item, same order as input.
1. Cc1c(C(=O)Nc2nnnn2C)cc2cccnc2c1-c1ccc(Cl)cc1 [Compound 1.036]
2. COc1ccc(-c2c(C)c(C(=O)Nc3nnnn3C)cc3cccnc23)cc1 [Compound 1.034]
3. Cc1c(C(=O)Nc2nnnn2C)cc2cccnc2c1-c1ccc(S(C)(=O)=O)cc1 [Compound 1.031]
4. Cn1nnnc1NC(=O)c1cc2cccnc2c(-c2ccccc2)c1C(F)(F)F [Compound 1.001]
5. Cn1nnnc1NC(=O)c1cc2cccnc2c(-c2ccccc2)c1Cl [Compound 1.011]
6. CCCn1nnnc1NC(=O)c1cc2cccnc2c(-c2ccccc2)c1C(F)(F)F [Compound 1.003]
7. Cc1c(C(=O)Nc2nnnn2C)cc2cccnc2c1-c1ccc(F)cc1 [Compound 1.035]

1: 5 (5=80-100%); 2: 5 (5=80-100%); 3: 5 (5=80-100%); 4: 5 (5=80-100%); 5: 5 (5=80-100%); 6: 3 (3=40-59%); 7: 5 (5=80-100%)
